- test_system: T1, anti-CD28 Fab (SEQ ID NOs: 202, 203)
- T1 construct: biotinylated and captured on neutravidin coated plates in the phage ELISA
- T1 sequence (VH, as listed by the source, chain 1 of 2): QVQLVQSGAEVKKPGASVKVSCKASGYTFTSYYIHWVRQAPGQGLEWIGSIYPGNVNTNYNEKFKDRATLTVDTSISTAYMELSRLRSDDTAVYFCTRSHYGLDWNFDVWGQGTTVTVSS
- T1 sequence (VL, as listed by the source, chain 2 of 2): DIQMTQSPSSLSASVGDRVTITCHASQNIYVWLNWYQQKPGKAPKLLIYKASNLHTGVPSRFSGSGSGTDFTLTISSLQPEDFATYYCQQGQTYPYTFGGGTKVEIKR
- experiment_description: phage ELISA on captured Fab, wells pre-incubated with CD28 antigen (competitor);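 note: clonal phage ELISA with wells pretreated with CD28 plus blocking buffer before phage addition, bound phage detected by HRP-linked anti-M13 antibody, reference wells got blocking buffer only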
Exercise: for every item that follows, state its recorded Anti-CD28 Fab signal in the presence of CD28.
Number, no unit, nothing else.

Query: For the binder YCEGHAQEYMNKCL (on phage, pIII fusion) [Phage-460] , report Anti-CD28 Fab signal in the presence of CD28.
Result: 0.06

Query: Retrieve Anti-CD28 Fab signal in the presence of CD28 measured for YCEGHSAQYMHKCL (on phage, pIII fusion) [Phage-481] and print it.
Result: 0.06

Query: Answer with the recorded Anti-CD28 Fab signal in the presence of CD28 for the binder listed here: YCAGHSLEYMQKCL (on phage, pIII fusion) [Phage-487]
Result: 0.07

Query: Report measured Anti-CD28 Fab signal in the presence of CD28; entry is YCDGHLPIYQAKCL (on phage, pIII fusion) [Phage-571]
Result: 0.1

Query: Supply reported Anti-CD28 Fab signal in the presence of CD28 belonging to this binder: YCQGHIEPYLAKCL (on phage, pIII fusion) [Phage-586]
Result: 0.05

Query: Return the recorded Anti-CD28 Fab signal in the presence of CD28 value; entry: YCDGHSLEYIGKCL (on phage, pIII fusion) [Phage-494]
Result: 0.06

Query: Return reported Anti-CD28 Fab signal in the presence of CD28. Input binder: YCAGHSPQYMEKCL (on phage, pIII fusion) [Phage-506]
Result: 0.06

Query: Determine its reported Anti-CD28 Fab signal in the presence of CD28: YCEGHSWVYMAKCL (on phage, pIII fusion) [Phage-493]
Result: 0.07
